# method: Body weight change and side effects during 14 days of oral treatment in nude mice
# Type: in vivo, BALB/c nu/nu mice
# measurement.parameters: day 10, 20 mg/kg oral once a day
measured.quantity: Body weight change (%)
Give the number; % is assumed, so skip it.

Example entries and their recorded answers appear below.
compound	measure.unit	measured.number
CN1CCN(C(=O)COc2ccc(C34CC5CC(CC(C5)C3)C4)cc2)CC1 [Compound I-3]	%	104.6
Cc1cc(C23CC4CC(CC(C4)C2)C3)ccc1OCC(=O)N1CCOCC1 [Compound I-6]	%	105.0

For reference, reported Body weight change for C[N+]1(C)CCN(C(=O)CCCOc2ccc(C34CC5CC(CC(C5)C3)C4)cc2)CC1.[I-] [Compound I-22] stands at 105.6

For reference, reported Body weight change for CN1CCN(C(=O)CCOc2ccc(C34CC5CC(CC(C5)C3)C4)cc2)CC1 [Compound I-8] stands at 102.9

For reference, reported Body weight change for CN1CCN(C(=O)C(C)(C)Oc2ccc(C34CC5CC(CC(C5)C3)C4)cc2)CC1 [Compound I-23] stands at 101.9

For reference, reported Body weight change for C[N+](C)(C)CCNC(=O)CCOc1ccc(C23CC4CC(CC(C4)C2)C3)cc1.[I-] [Compound I-19] stands at 105.1

For reference, reported Body weight change for CN(C)CCNC(=O)C(C)(C)Oc1ccc(C23CC4CC(CC(C4)C2)C3)cc1 [Compound I-24] stands at 105.0

For reference, reported Body weight change for Cc1cc(C23CC4CC(CC(C4)C2)C3)ccc1OCC(=O)N1CC[N+](C)(C)CC1.[I-] [Compound I-16] stands at 105.8

---

Items are presented alongside their recorded Body weight change.
# method: Body weight change and side effects during 14 days of oral treatment in nude mice
# Format: in vivo, BALB/c nu/nu mice
# measurement.parameters: day 12, 20 mg/kg oral once a day

test.smiles	result
C[N+]1(C)CCN(C(=O)CCCOc2ccc(C34CC5CC(CC(C5)C3)C4)cc2)CC1.[I-]	103.8 ± 3.6%
C[N+](C)(C)CCNC(=O)CCOc1ccc(C23CC4CC(CC(C4)C2)C3)cc1.[I-]	103.4 ± 3.5%
CN1CCN(C(=O)COc2ccc(C34CC5CC(CC(C5)C3)C4)cc2)CC1	103.1 ± 2.7%

For reference, reported Body weight change for CN1CCN(C(=O)C(C)(C)Oc2ccc(C34CC5CC(CC(C5)C3)C4)cc2)CC1 stands at 101.6 ± 1.3%

---

# method: Body weight change and side effects during 14 days of oral treatment in nude mice
# Type: in vivo, BALB/c nu/nu mice
# measurement.parameters: day 14, 20 mg/kg oral once a day
measured.quantity: Body weight change (%)
Give the number; % is assumed, so skip it.

Example entries and their recorded answers appear below.
compound	measured.quantity	measure.unit	measured.number
CN(C)CCNC(=O)C(C)(C)Oc1ccc(C23CC4CC(CC(C4)C2)C3)cc1 [Compound I-24]	Body weight change	%	106.5
C[N+]1(C)CCN(C(=O)CCCOc2ccc(C34CC5CC(CC(C5)C3)C4)cc2)CC1.[I-] [Compound I-22]	Body weight change	%	102.7
CN1CCN(C(=O)CCOc2ccc(C34CC5CC(CC(C5)C3)C4)cc2)CC1 [Compound I-8]	Body weight change	%	101.7

Now for a further compound.
For reference, reported Body weight change for Cc1cc(C23CC4CC(CC(C4)C2)C3)ccc1OCC(=O)N1CCOCC1 [Compound I-6] stands at 102.4

---

# Tested on: HCT116 colon cancer cells
# method: In vivo anti-cancer activity by oral administration, HCT116 tumor in nude mice
# Parameters: species or system BALB/c nu/nu mice
# measurement.parameters: day 14, 20 mg/kg oral once a day
Items are presented alongside their recorded Tumor weight.
Give the number; mg is assumed, so skip it.

Example entries and their recorded answers appear below.
test.smiles	measured.number
C[N+](C)(C)CCNC(=O)CCOc1ccc(C23CC4CC(CC(C4)C2)C3)cc1.[I-]	1392.4
CN1CCN(C(=O)CCOc2ccc(C34CC5CC(CC(C5)C3)C4)cc2)CC1	1634.6
CN1CCN(C(=O)C(C)(C)Oc2ccc(C34CC5CC(CC(C5)C3)C4)cc2)CC1	3659.9
CN(C)CCNC(=O)C(C)(C)Oc1ccc(C23CC4CC(CC(C4)C2)C3)cc1	3685.5
C[N+]1(C)CCN(C(=O)CCCOc2ccc(C34CC5CC(CC(C5)C3)C4)cc2)CC1.[I-]	1197.3
CN1CCN(C(=O)COc2ccc(C34CC5CC(CC(C5)C3)C4)cc2)CC1	2074.2

For reference, reported Tumor weight for Cc1cc(C23CC4CC(CC(C4)C2)C3)ccc1OCC(=O)N1CC[N+](C)(C)CC1.[I-] stands at 1655.7

For reference, reported Tumor weight for Cc1cc(C23CC4CC(CC(C4)C2)C3)ccc1OCC(=O)N1CCOCC1 stands at 1703.3

---

# Test system: HCT116 colon cancer cells
# method: In vivo anti-cancer activity by oral administration, HCT116 tumor in nude mice
# Parameters: species or system BALB/c nu/nu mice
# measurement.parameters: day 7, 20 mg/kg oral once a day
measured.quantity: Tumor volume (mm^3)
Give the number; mm^3 is assumed, so skip it.

compound	measured.quantity	measured.number
CN1CCN(C(=O)COc2ccc(C34CC5CC(CC(C5)C3)C4)cc2)CC1 [Compound I-3]	Tumor volume	133.7
Cc1cc(C23CC4CC(CC(C4)C2)C3)ccc1OCC(=O)N1CCOCC1 [Compound I-6]	Tumor volume	128.4
CN1CCN(C(=O)CCOc2ccc(C34CC5CC(CC(C5)C3)C4)cc2)CC1 [Compound I-8]	Tumor volume	122.2
CN(C)CCNC(=O)C(C)(C)Oc1ccc(C23CC4CC(CC(C4)C2)C3)cc1 [Compound I-24]	Tumor volume	176.8
C[N+](C)(C)CCNC(=O)CCOc1ccc(C23CC4CC(CC(C4)C2)C3)cc1.[I-] [Compound I-19]	Tumor volume	110.4

For reference, reported Tumor volume for Cc1cc(C23CC4CC(CC(C4)C2)C3)ccc1OCC(=O)N1CC[N+](C)(C)CC1.[I-] [Compound I-16] stands at 125.8

For reference, reported Tumor volume for C[N+]1(C)CCN(C(=O)CCCOc2ccc(C34CC5CC(CC(C5)C3)C4)cc2)CC1.[I-] [Compound I-22] stands at 98.9

For reference, reported Tumor volume for CN1CCN(C(=O)C(C)(C)Oc2ccc(C34CC5CC(CC(C5)C3)C4)cc2)CC1 [Compound I-23] stands at 182.4

---

# Test system: HIF-1α-mediated HRE transcriptional activity
# method: Assay for inhibition of HIF-1α-mediated transcriptional activity (HRE reporter assay)
# Format: cell-based, human
# measurement.parameters: Homo sapiens, HCT-116, HCT116 cells, 12 hours under hypoxia (1% O2), read-out: Inhibitory activity against HIF-1α (10 μM)
Items are presented alongside their recorded inhibition at 10 µM.

test.smiles	measured.quantity	result
Cc1cc(C23CC4CC(CC(C4)C2)C3)ccc1OCC(=O)N1CC[N+](C)(C)CC1.[I-]	inhibition at 10 µM	51 to 75%
CN1CCN(C(=O)C(C)(C)Oc2ccc(C34CC5CC(CC(C5)C3)C4)cc2)CC1	inhibition at 10 µM	76 to 100%
CC(C)N1CCN(C(=O)COc2ccc(C34CC5CC(CC(C5)C3)C4)cc2)CC1	inhibition at 10 µM	51 to 75%
Cc1cc(C23CC4CC(CC(C4)C2)C3)ccc1OCCC(=O)N1CCOCC1	inhibition at 10 µM	76 to 100%
C[C@H]1CN(C(=O)OC(C)(C)C)CCN1C(=O)COc1ccc(C23CC4CC(CC(C4)C2)C3)cc1	inhibition at 10 µM	76 to 100%

For reference, reported inhibition at 10 µM for Cc1cc(C23CC4CC(CC(C4)C2)C3)ccc1OCCC(=O)NCCN(C)C stands at 51 to 75%

For reference, reported inhibition at 10 µM for O=C(COc1ccc(C23CC4CC(CC(C4)C2)C3)cc1)N1CCNCC1 stands at 76 to 100%

---

# Test system: HCT116 colon cancer cells
# method: In vivo anti-cancer activity by oral administration, HCT116 tumor in nude mice
# Set-up: species or system BALB/c nu/nu mice
# measurement.parameters: Mus musculus, HCT-116, 336 h; day 14, 20 mg/kg oral once a day; read-out: TGI (tumor growth inhibition), tumor weight
measured.quantity: inhibition in vivo at 20 mg/kg (%)
Give the number; % is assumed, so skip it.

For reference, reported inhibition in vivo at 20 mg/kg for CN1CCN(C(=O)C(C)(C)Oc2ccc(C34CC5CC(CC(C5)C3)C4)cc2)CC1 [Compound I-23] stands at 14.5

For reference, reported inhibition in vivo at 20 mg/kg for CN(C)CCNC(=O)C(C)(C)Oc1ccc(C23CC4CC(CC(C4)C2)C3)cc1 [Compound I-24] stands at 13.9

For reference, reported inhibition in vivo at 20 mg/kg for C[N+]1(C)CCN(C(=O)CCCOc2ccc(C34CC5CC(CC(C5)C3)C4)cc2)CC1.[I-] [Compound I-22] stands at 49.5

For reference, reported inhibition in vivo at 20 mg/kg for CN1CCN(C(=O)CCOc2ccc(C34CC5CC(CC(C5)C3)C4)cc2)CC1 [Compound I-8] stands at 31

For reference, reported inhibition in vivo at 20 mg/kg for Cc1cc(C23CC4CC(CC(C4)C2)C3)ccc1OCC(=O)N1CC[N+](C)(C)CC1.[I-] [Compound I-16] stands at 30.2

For reference, reported inhibition in vivo at 20 mg/kg for CN1CCN(C(=O)COc2ccc(C34CC5CC(CC(C5)C3)C4)cc2)CC1 [Compound I-3] stands at 51.5

For reference, reported inhibition in vivo at 20 mg/kg for C[N+](C)(C)CCNC(=O)CCOc1ccc(C23CC4CC(CC(C4)C2)C3)cc1.[I-] [Compound I-19] stands at 41.3

For reference, reported inhibition in vivo at 20 mg/kg for Cc1cc(C23CC4CC(CC(C4)C2)C3)ccc1OCC(=O)N1CCOCC1 [Compound I-6] stands at 28.1
